# key: entry, value: cytotoxicity at 2 h, 5 µM
assay: Toxicity assessed as inhibition of cell viability of UVB irradiated human HaCaT cells at 5 uM administered 2 hrs before irradiation by MTT assay; assay type: cell-based; settings: read-out: Inhibition
Output spec: scalar in %, unitless text.

Example results:
INSERT INTO measurements (smiles_entry, reported_result) VALUES
  ('CC1=CCC[C@H]2[C@](C)(Cc3cc(O)cc(Sc4ccccc4)c3O)[C@@H](C)CC[C@]12C', 0),
  ('CC1=CCC[C@H]2[C@](C)(Cc3cc(O)c(SCC(=O)O)cc3O)[C@@H](C)CC[C@]12C', 12.4),
  ('CC1=CCC[C@H]2[C@](C)(Cc3cc(O)c(Sc4ccc(C)cc4)c(Sc4ccc(C)cc4)c3O)[C@@H](C)CC[C@]12C', 0);

# context switch: different molecule, same cytotoxicity at 2 h, 5 µM
INPUT: Answer with the recorded cytotoxicity at 2 h, 5 µM of CC1=CCC[C@H]2[C@](C)(Cc3cc(O)cc(Sc4ccc(C)cc4)c3O)[C@@H](C)CC[C@]12C only.
OUTPUT: 0

----------
assay: Toxicity assessed as inhibition of cell viability of UVB irradiated human HaCaT cells at 5 uM administered 2 hrs before irradiation by MTT assay; type: cell-based; settings: read-out: Inhibition
Each entry below carries its reported cytotoxicity at 2 h, 5 µM.
Write it as a number; the unit % goes unstated.

Recorded results for 3 compounds are shown here.
INSERT INTO results (compound, quantity_unit, reported_result) VALUES
  ('CC1=CCC[C@H]2[C@](C)(Cc3cc(O)c(Sc4ccccc4)c(Sc4ccccc4)c3O)[C@@H](C)CC[C@]12C', '%', 0),
  ('COc1cc2ccc(=O)oc2c(O)c1O [FRAXETIN]', '%', 0),
  ('CC1=CCC[C@H]2[C@](C)(Cc3cc(O)c(Sc4ccccc4)cc3O)[C@@H](C)CC[C@]12C', '%', 0);

INPUT: Please look at this compound and report its cytotoxicity at 2 h, 5 µM: CC1=CCC[C@H]2[C@](C)(Cc3cc(O)c(Sc4ccc(C)cc4)cc3O)[C@@H](C)CC[C@]12C
OUTPUT: 0

INPUT: Recall and state the measured cytotoxicity at 2 h, 5 µM for CC1=CCC[C@H]2[C@](C)(Cc3cc(O)cc(SCC(=O)O)c3O)[C@@H](C)CC[C@]12C .
OUTPUT: 18.3

INPUT: Quote cytotoxicity at 2 h, 5 µM reported for CC1=CCC[C@H]2[C@](C)(Cc3cc(O)cc(SCCO)c3O)[C@@H](C)CC[C@]12C please.
OUTPUT: 20.6

INPUT: State, in one line, measured cytotoxicity at 2 h, 5 µM of CC1=CCC[C@H]2[C@](C)(Cc3cc(O)c(SCCO)c(SCCO)c3O)[C@@H](C)CC[C@]12C
OUTPUT: 18.1

INPUT: Provide measured cytotoxicity at 2 h, 5 µM value, entry: CC1=CCC[C@H]2[C@](C)(Cc3cc(O)c(SCCO)cc3O)[C@@H](C)CC[C@]12C
OUTPUT: 21.4

INPUT: Entry CC1=CCC[C@H]2[C@](C)(Cc3cc(O)c(SCC(O)CO)cc3O)[C@@H](C)CC[C@]12C (stereo not given in full) needs its cytotoxicity at 2 h, 5 µM filled in; supply it.
OUTPUT: 12.6

INPUT: Report measured cytotoxicity at 2 h, 5 µM; entry is CC1=CCC[C@H]2[C@](C)(Cc3cc(O)cc(SCC(O)CO)c3O)[C@@H](C)CC[C@]12C (stereo not given in full)
OUTPUT: 13.6
